Where do these numbers come from? They come from BindingDB's records for doi:10.1016/S0893-133X(01)00285-8.

Molecular target: Alpha-2C adrenergic receptor (Homo sapiens, UniProt P18825)
Sequence (P18825 whole entry): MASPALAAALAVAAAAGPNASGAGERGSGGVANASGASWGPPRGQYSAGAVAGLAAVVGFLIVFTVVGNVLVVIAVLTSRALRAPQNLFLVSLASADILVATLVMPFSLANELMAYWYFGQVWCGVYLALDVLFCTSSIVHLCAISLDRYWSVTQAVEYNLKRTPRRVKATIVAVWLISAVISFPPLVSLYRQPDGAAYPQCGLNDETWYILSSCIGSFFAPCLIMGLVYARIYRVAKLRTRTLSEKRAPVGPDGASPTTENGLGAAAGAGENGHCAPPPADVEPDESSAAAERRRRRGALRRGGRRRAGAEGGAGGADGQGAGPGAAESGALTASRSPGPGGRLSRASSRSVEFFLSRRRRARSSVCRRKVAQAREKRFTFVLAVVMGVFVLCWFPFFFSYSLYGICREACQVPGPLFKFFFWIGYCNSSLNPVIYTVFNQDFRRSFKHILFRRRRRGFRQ
measurement label: Ki (nM)
Write it as a number; the unit nM goes unstated.

So for "COc1cc(C(C)=O)ccc1OCCCN1CCC(c2noc3cc(F)ccc23)CC1" , the logged Ki turned out to be 16.2

* * *

Biological target: Sodium-dependent noradrenaline transporter (Homo sapiens, UniProt P23975)
Sequence (P23975 whole entry): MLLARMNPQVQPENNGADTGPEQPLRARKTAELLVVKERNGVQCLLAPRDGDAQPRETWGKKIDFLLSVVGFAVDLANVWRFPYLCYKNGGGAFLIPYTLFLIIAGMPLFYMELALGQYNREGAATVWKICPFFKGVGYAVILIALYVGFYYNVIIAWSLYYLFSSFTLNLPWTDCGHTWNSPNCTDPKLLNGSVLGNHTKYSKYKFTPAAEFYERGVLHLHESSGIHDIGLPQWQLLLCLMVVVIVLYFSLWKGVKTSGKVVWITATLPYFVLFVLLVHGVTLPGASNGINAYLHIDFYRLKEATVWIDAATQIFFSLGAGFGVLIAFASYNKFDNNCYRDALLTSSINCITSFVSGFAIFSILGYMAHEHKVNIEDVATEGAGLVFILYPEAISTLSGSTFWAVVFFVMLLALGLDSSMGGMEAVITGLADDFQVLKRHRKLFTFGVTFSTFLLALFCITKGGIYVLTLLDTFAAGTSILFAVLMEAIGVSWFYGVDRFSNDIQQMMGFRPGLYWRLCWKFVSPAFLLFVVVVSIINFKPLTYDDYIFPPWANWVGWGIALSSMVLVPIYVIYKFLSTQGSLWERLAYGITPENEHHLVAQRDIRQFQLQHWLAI
measurement label: Ki (µM)
Write it as a number; the unit µM goes unstated.

Entry "COc1cc(C(C)=O)ccc1OCCCN1CCC(c2noc3cc(F)ccc23)CC1" under Sodium-dependent noradrenaline transporter (Homo sapiens, UniProt P23975) had Ki of 1.48

* * *

Biological target: Substance-K receptor (Homo sapiens, UniProt P21452)
Sequence (P21452 whole entry): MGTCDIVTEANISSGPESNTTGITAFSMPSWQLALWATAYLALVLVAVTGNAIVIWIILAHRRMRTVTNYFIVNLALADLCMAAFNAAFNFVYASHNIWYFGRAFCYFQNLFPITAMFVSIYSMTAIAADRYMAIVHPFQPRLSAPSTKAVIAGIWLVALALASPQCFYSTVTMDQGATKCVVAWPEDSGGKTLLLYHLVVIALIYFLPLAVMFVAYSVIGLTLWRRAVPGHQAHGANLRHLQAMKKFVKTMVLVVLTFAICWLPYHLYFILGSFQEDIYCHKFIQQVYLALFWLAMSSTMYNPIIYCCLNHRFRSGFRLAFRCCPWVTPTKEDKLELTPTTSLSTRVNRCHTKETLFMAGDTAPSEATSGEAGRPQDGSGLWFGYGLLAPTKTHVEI
pKi: −log10 of the molar value.
measurement label: pKi

So for "COc1cc(C(C)=O)ccc1OCCCN1CCC(c2noc3cc(F)ccc23)CC1" , the logged pKi turned out to be < 5.00

* * *

Target chain: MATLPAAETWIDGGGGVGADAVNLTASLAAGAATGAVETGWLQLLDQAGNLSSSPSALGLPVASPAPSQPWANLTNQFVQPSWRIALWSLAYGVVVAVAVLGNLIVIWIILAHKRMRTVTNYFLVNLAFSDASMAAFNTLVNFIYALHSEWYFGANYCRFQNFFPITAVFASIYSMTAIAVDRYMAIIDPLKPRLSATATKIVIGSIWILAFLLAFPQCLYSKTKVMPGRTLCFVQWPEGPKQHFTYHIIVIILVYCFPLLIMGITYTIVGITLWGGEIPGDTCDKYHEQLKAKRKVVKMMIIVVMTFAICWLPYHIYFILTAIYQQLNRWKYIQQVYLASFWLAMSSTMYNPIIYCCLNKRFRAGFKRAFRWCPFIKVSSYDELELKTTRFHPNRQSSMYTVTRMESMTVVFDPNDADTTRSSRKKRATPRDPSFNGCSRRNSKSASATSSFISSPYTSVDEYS
measurement label: Ki

So for "COc1cc(C(C)=O)ccc1OCCCN1CCC(c2noc3cc(F)ccc23)CC1" , the logged Ki turned out to be > 10 µM

* * *

Target: Adenosine receptor A3 (Homo sapiens, UniProt P0DMS8)
Sequence (P0DMS8 whole entry): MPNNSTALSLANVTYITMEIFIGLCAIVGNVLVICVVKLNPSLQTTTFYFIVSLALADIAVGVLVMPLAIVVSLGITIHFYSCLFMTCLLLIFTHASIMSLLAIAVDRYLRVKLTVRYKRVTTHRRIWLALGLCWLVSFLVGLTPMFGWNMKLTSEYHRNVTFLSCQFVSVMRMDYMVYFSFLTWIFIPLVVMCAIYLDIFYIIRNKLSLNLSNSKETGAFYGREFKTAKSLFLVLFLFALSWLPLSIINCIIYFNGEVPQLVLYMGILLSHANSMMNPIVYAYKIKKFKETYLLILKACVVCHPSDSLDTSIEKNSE
measurement label: Ki

So for "COc1cc(C(C)=O)ccc1OCCCN1CCC(c2noc3cc(F)ccc23)CC1" , the logged Ki turned out to be > 10 µM

* * *

Biological target: Sodium-dependent dopamine transporter (Homo sapiens, UniProt Q01959)
Sequence (Q01959 whole entry): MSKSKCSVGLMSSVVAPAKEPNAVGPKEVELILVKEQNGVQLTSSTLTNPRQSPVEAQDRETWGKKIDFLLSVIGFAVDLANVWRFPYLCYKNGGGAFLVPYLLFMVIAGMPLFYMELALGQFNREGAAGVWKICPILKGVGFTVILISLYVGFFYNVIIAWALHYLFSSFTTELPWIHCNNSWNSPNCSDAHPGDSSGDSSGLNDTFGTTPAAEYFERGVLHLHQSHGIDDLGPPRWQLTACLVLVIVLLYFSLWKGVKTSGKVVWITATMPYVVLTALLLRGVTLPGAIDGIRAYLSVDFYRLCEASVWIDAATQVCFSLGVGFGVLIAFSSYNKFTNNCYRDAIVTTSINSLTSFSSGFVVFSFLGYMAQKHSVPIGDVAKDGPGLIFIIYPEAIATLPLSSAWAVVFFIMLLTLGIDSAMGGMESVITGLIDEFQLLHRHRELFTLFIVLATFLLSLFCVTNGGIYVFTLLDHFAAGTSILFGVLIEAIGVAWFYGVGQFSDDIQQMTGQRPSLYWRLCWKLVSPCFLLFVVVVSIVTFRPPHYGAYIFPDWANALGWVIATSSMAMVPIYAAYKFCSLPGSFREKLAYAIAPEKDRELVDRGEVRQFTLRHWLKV
measurement label: Ki (nM)
Write it as a number; the unit nM goes unstated.

So for "COc1cc(C(C)=O)ccc1OCCCN1CCC(c2noc3cc(F)ccc23)CC1" , the logged Ki turned out to be 2950

* * *

Sequence of the target: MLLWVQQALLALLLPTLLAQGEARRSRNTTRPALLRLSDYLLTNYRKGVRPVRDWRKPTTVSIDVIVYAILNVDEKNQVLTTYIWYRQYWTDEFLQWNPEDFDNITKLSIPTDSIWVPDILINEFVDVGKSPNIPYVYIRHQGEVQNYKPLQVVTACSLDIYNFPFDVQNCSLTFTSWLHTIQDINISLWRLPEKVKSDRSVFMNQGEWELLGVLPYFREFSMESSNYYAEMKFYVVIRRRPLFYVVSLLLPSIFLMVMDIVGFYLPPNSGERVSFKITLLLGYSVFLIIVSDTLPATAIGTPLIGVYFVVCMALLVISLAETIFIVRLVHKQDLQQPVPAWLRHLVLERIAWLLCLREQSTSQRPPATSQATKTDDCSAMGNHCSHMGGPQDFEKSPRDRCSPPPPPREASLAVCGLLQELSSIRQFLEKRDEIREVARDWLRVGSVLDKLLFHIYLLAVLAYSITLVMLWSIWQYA
pKi: −log10 of the molar value.
measurement label: pKi

So for "COc1cc(C(C)=O)ccc1OCCCN1CCC(c2noc3cc(F)ccc23)CC1" , the logged pKi turned out to be < 5.00

* * *

Target: Mu-type opioid receptor (Homo sapiens)
Sequence (P35372 whole entry): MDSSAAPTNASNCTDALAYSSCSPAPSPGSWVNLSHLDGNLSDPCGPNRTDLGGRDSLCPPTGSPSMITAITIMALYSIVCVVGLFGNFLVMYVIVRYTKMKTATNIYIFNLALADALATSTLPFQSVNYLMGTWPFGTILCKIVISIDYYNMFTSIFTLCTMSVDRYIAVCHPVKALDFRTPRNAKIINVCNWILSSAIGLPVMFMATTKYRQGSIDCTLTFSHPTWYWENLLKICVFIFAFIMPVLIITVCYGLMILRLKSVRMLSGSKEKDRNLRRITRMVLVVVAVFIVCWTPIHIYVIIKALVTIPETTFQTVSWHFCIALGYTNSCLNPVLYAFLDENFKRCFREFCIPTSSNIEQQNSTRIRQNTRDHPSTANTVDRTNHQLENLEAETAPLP
measurement label: Ki

Entry "COc1cc(C(C)=O)ccc1OCCCN1CCC(c2noc3cc(F)ccc23)CC1" under Mu-type opioid receptor (Homo sapiens) had Ki of > 10 µM

* * *

Target: 5-hydroxytryptamine receptor 7 (Homo sapiens, UniProt P34969)
Sequence (P34969 whole entry): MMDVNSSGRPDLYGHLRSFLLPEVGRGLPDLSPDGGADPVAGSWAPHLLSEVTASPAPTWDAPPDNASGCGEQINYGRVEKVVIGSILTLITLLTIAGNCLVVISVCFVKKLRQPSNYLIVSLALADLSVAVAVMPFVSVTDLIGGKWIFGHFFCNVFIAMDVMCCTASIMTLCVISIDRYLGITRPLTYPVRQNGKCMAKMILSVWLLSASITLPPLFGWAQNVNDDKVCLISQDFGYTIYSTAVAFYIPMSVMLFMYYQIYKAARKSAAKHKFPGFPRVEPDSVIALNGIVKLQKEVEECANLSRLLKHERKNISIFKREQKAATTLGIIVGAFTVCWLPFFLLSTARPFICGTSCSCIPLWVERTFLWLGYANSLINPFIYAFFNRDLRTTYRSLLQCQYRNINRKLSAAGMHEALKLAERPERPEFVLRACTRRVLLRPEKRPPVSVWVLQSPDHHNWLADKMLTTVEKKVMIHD
measurement label: pKi
Bear in mind: pKi is minus log10 of a mol/L concentration; give just that figure.

Entry "COc1cc(C(C)=O)ccc1OCCCN1CCC(c2noc3cc(F)ccc23)CC1" under 5-hydroxytryptamine receptor 7 (Homo sapiens, UniProt P34969) had pKi of 6.95

* * *

Molecular target: Adenosine receptor A2a (Homo sapiens, UniProt P29274)
Sequence (P29274 whole entry): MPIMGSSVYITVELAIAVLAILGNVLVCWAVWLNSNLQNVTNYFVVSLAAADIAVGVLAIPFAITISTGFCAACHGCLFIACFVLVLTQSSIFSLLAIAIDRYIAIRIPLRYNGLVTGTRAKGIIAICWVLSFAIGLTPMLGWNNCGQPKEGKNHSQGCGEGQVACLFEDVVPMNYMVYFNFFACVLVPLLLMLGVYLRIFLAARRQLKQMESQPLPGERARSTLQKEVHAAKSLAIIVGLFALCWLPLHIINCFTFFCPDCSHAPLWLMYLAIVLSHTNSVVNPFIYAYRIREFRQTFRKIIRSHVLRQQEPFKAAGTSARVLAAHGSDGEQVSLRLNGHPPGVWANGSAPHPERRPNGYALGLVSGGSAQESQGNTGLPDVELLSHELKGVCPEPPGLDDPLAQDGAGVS
measurement label: Ki

Entry "COc1cc(C(C)=O)ccc1OCCCN1CCC(c2noc3cc(F)ccc23)CC1" under Adenosine receptor A2a (Homo sapiens, UniProt P29274) had Ki of > 10 µM

* * *

Target protein (sequence): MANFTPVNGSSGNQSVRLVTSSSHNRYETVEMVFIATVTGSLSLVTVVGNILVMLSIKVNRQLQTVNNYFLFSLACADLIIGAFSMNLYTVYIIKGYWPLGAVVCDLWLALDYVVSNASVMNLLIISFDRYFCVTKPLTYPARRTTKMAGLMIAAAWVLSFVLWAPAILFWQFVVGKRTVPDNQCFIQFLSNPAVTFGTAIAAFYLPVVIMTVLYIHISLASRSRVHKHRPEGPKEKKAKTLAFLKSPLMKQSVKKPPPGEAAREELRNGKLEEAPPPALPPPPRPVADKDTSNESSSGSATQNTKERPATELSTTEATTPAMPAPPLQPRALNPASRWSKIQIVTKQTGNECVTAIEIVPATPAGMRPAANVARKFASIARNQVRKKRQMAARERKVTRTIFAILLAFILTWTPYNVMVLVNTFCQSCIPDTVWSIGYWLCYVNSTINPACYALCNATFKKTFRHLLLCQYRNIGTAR
measurement label: pKi
Bear in mind: pKi is minus log10 of a mol/L concentration; give just that figure.

So for "COc1cc(C(C)=O)ccc1OCCCN1CCC(c2noc3cc(F)ccc23)CC1" , the logged pKi turned out to be 5.08

* * *

Biological target: Delta-type opioid receptor (Homo sapiens)
Sequence (P41143 whole entry): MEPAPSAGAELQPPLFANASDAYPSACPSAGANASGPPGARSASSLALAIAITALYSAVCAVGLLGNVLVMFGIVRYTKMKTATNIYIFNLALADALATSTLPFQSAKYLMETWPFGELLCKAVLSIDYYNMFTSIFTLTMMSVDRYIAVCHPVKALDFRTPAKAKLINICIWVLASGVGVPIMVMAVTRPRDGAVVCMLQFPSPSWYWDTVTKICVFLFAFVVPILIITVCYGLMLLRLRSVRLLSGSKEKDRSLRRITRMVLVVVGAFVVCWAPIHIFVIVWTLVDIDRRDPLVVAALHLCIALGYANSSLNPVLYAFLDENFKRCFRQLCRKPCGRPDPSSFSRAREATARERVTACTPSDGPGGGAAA
measurement label: Ki

So for "COc1cc(C(C)=O)ccc1OCCCN1CCC(c2noc3cc(F)ccc23)CC1" , the logged Ki turned out to be > 10 µM

* * *

Molecular target: Alpha-2B adrenergic receptor (Homo sapiens, UniProt P18089)
Sequence (P18089 whole entry): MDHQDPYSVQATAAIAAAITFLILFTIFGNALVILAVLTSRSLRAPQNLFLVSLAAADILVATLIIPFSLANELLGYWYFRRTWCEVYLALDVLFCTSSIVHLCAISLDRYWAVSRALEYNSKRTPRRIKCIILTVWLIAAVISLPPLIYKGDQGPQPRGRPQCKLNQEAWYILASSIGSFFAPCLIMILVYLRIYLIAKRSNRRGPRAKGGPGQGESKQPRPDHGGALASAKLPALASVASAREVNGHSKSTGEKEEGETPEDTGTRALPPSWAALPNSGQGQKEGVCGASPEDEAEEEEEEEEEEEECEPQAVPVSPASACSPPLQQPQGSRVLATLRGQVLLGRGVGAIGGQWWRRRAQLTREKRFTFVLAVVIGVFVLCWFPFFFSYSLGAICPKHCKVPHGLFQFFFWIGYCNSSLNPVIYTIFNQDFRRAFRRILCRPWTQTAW
measurement label: pKi
Bear in mind: pKi is minus log10 of a mol/L concentration; give just that figure.

So for "COc1cc(C(C)=O)ccc1OCCCN1CCC(c2noc3cc(F)ccc23)CC1" , the logged pKi turned out to be 6.79
